Target: EGFR ins SVD (insertion of SVD between D770 and N771) (Homo sapiens, UniProt P00533, INS767SVD)
Sequence (P00533 with tags, fused parts or gaps INS767SVD limits assumed): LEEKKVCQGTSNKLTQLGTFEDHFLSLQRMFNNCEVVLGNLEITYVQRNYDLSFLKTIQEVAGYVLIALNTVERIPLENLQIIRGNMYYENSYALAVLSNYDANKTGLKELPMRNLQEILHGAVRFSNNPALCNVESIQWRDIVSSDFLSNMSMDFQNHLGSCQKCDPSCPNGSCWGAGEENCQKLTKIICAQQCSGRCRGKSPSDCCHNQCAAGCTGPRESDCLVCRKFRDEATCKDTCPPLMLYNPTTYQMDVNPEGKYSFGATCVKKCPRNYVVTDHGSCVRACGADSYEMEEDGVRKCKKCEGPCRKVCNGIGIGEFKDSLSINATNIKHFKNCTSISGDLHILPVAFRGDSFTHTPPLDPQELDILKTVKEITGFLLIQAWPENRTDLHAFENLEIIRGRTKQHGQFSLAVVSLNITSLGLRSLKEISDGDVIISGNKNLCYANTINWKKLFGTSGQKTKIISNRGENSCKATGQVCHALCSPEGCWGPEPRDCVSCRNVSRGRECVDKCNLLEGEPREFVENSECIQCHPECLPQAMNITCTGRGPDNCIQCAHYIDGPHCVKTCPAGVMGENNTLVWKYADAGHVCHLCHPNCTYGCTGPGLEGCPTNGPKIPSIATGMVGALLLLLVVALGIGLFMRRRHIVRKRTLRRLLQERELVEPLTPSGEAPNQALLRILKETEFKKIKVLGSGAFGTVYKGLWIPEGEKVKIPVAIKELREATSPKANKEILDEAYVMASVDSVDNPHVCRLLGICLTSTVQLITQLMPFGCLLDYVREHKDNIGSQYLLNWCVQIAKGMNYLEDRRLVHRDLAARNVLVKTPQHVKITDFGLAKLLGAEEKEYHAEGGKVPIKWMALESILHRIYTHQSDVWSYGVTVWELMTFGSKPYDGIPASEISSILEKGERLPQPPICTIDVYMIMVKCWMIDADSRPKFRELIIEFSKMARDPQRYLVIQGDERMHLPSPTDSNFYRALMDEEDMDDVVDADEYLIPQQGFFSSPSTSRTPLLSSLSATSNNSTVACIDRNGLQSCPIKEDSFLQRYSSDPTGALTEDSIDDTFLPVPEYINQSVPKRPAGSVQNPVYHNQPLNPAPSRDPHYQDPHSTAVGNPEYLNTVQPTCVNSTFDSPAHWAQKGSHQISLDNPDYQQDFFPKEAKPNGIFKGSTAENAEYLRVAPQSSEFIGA
Experiment: Exon 20-Mutant-EGFR(D770_N771insSVD) kinase assay (TR-FRET)
Type: biochemical
Details: Table 9; read-out: mutEGFR (D770_N771insSVD) kinase assay IC50
reported property: pIC50
The meaning of pIC50 here: minus log10 of the concentration in molar units.

For orientation, consider the following solved cases.
[[record]]
molecule = "CC(C)(COc1cnccc1-c1[nH]c2c(c1Nc1cccc(F)c1)C(=O)NCC2)N1CCOCC1 [Example 7]"
data_value = 8.95

[[record]]
molecule = "COc1c(F)cccc1Nc1c(-c2ccncc2OCCC(C)(C)OC)[nH]c2c1C(=O)NCC2 [Example 57]"
data_value = 9.64


Need pIC50 of COc1c(Nc2c(-c3ccncc3OCCN(C)CC(F)(F)F)[nH]c3c2C(=O)NCC3)ccc(F)c1Cl [Example 96] , thanks.
9.52

Also check CCOC(C)(C)COc1cnccc1-c1[nH]c2c(c1Nc1cccc(F)c1OC)C(=O)NCC2 [Example 58]
9.95

Also check COCCOc1cnccc1-c1[nH]c2c(c1Nc1ccccc1CC(F)F)C(=O)NCC2 [Example 15]
9.31

* * *

Target: EGFR ins SVD (insertion of SVD between D770 and N771) (Homo sapiens, UniProt P00533, INS767SVD)
Experiment: Exon 20-Mutant-EGFR(D770_N771insSVD) kinase assay (TR-FRET)
Assay type: biochemical
Conditions: Table 9; read-out: mutEGFR (D770_N771insSVD) kinase assay IC50
reported property: pIC50
The meaning of pIC50 here: minus log10 of the concentration in molar units.

Need pIC50 of COc1c(F)cccc1Nc1c(-c2ccncc2OCC2CCCO2)[nH]c2c1C(=O)NCC2 (single isomer, unassigned; enantiomer 2) [Example 89] , thanks.
9.97

Also check COC(C)(C)COc1cnccc1-c1[nH]c2c(c1Nc1cccc(Cl)c1OC(F)F)C(=O)NCC2 [Example 38]
9.89

Also check CC(C)(O)COc1cnccc1-c1[nH]c2c(c1Nc1cccc(F)c1OC(F)F)C(=O)NCC2 [Example 73]
9.78

* * *

Measured IC50 of individual entries
Target: EGFR ins SVD (insertion of SVD between D770 and N771) (Homo sapiens, UniProt P00533, INS767SVD)
Assay: Exon 20-Mutant-EGFR(D770_N771insSVD) kinase assay (TR-FRET)
Format: biochemical
Conditions: 2 mM ATP; mean; read-out: EGFR ins SVD IC50 [mol/l] (mean)
Give just the numeric value; nM need not be written.

[[record]]
smiles_structure = "O=C1NCCc2[nH]c(-c3ccncc3OCc3ccccc3)c(Nc3cccc(F)c3)c21"
units = "nM"
data_value = 0.28

[[record]]
smiles_structure = "COC(C)(C)COc1cnccc1-c1[nH]c2c(c1Nc1cccc(F)c1OC(F)F)C(=O)NCC2"
units = "nM"
data_value = 0.155


Need IC50 of `COc1c(F)cc(F)cc1Nc1c(-c2ccncc2OCC(C)(C)OC)[nH]c2c1C(=O)NCC2` , thanks.
0.0988

* * *

Measured IC50 of individual entries
Target: EGFR ins SVD (insertion of SVD between D770 and N771) (Homo sapiens, UniProt P00533, INS767SVD)
Assay: Exon 20-Mutant-EGFR(D770_N771insSVD) kinase assay (TR-FRET)
Assay type: biochemical
Settings: 2 mM ATP; mean; read-out: EGFR ins SVD IC50 [mol/l] (mean)

Need IC50 of `COCCOc1cnccc1-c1[nH]c2c(c1Nc1cccc(F)c1Br)C(=O)NCC2` , thanks.
0.0857 nM

Also check `COC(C)(C)COc1cnccc1-c1[nH]c2c(c1Nc1cc(F)cc(F)c1)C(=O)NCC2`
< 0.072 nM

Also check `COCCOc1cnccc1-c1[nH]c2c(c1Nc1cc(F)cc(F)c1OC)C(=O)NCC2`
0.0969 nM

Also check `CC(C)(COc1cnccc1-c1[nH]c2c(c1Nc1cccc(F)c1)C(=O)NCC2)N1CCOCC1`
0.718 nM

Also check `CC(C)(O)COc1cnccc1-c1[nH]c2c(c1Nc1cccc(F)c1)C(=O)NCC2`
< 0.072 nM

Also check `COC(C)(C)COc1cnccc1-c1[nH]c2c(c1Nc1cccc(F)c1OCC(F)F)C(=O)NCC2`
2.14 nM

Also check `COCCOc1cnccc1-c1[nH]c2c(c1Nc1ccc(F)c(F)c1OC)C(=O)NCC2`
0.738 nM

Also check `COCCOc1cnccc1-c1[nH]c2c(c1Nc1ccccc1OC(F)F)C(=O)NCC2`
0.22 nM

* * *

Measured IC50 of individual entries
Molecular target: Bub1 (Homo sapiens (Human), UniProt O43683)
Sequence (O43683 704-1085): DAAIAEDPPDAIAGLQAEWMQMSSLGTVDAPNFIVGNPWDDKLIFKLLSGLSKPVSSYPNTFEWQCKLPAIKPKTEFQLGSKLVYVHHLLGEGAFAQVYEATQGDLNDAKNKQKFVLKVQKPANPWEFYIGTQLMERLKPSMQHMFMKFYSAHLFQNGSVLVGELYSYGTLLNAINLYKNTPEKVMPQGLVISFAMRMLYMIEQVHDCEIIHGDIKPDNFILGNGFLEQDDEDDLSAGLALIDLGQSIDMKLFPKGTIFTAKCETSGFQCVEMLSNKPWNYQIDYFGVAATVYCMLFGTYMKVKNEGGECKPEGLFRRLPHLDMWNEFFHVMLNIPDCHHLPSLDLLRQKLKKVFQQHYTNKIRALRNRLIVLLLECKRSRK
Give just the numeric value; nM need not be written.

[[record]]
compound = "CN1CCC[C@H]1COc1cnccc1-c1[nH]c2c(c1Nc1cccc(F)c1)C(=O)NCC2 [Example 8]"
reported_property = "IC50"
units = "nM"
data_value = 65.8

[[record]]
compound = "COC(C)(C)COc1cnccc1-c1[nH]c2c(c1Nc1cc(F)cc(F)c1)C(=O)NCC2 [Example 10]"
reported_property = "IC50"
units = "nM"
data_value = 12.4

[[record]]
compound = "CC(C)(O)COc1cnccc1-c1[nH]c2c(c1Nc1cccc(F)c1)C(=O)NCC2 [Example 4]"
reported_property = "IC50"
units = "nM"
data_value = 12.5


I'm curious: which IC50 was measured for CN(C)CCOc1cnccc1-c1[nH]c2c(c1Nc1cccc(F)c1)C(=O)NCC2 [Example 5] tested on Bub1 (Homo sapiens (Human), UniProt O43683)?
32.4

Also check CC(C)(COc1cnccc1-c1[nH]c2c(c1Nc1cccc(F)c1)C(=O)NCC2)N1CCOCC1 [Example 7]
397

Also check COC(C)(C)COc1cnccc1-c1[nH]c2c(c1Nc1cccc(F)c1OC(F)F)C(=O)NCC2 [Example 19]
149

Also check COCCOc1cnccc1-c1[nH]c2c(c1Nc1cccc(F)c1C)C(=O)NCC2 [Example 20]
67.4

Also check COc1c(F)cc(F)cc1Nc1c(-c2ccncc2OCC(C)(C)OC)[nH]c2c1C(=O)NCC2 [Example 31]
265

Also check COC(C)(C)COc1cnccc1-c1[nH]c2c(c1Nc1cccc(F)c1)C(=O)NCC2 [Example 6]
26.9

Also check COCCOc1cnccc1-c1[nH]c2c(c1Nc1cc(F)cc(F)c1OC)C(=O)NCC2 [Example 30]
323

* * *

Target: EGFR ins SVD (insertion of SVD between D770 and N771) (Homo sapiens, UniProt P00533, INS767SVD)
Test: Exon 20-Mutant-EGFR(D770_N771insSVD) kinase assay (TR-FRET)
Format: biochemical
Conditions: Table 9; read-out: mutEGFR (D770_N771insSVD) kinase assay IC50
// returns F unless IC50 is strictly below 0.2 nM, in which case T

[[record]]
compound = "COc1c(F)cccc1Nc1c(-c2ccncc2OCCN2CCOCC2)[nH]c2c1C(=O)NCC2"
label_value = "F"


Quick check: does `COc1c(F)cccc1Nc1c(-c2ccncc2OC[C@@H](C)OC)[nH]c2c1C(=O)NCC2` have IC50 under 0.2 nM?
T

Also check `COC(C)(C)COc1cnccc1-c1[nH]c2c(c1Nc1cccc(Cl)c1C)C(=O)NCC2`
T

* * *

Tested on: Ba/F3-EGFR-insSVD cells
Assay: Proliferation assay in BA/F3 (ins SVD) cells (Cell Titer-Glo)
Assay type: cell-based
Conditions: Mus musculus, BaF3, 48 h, Table 10, plated without EGF
Measured IC50 of individual entries
Give just the numeric value; nM need not be written.

I'm curious: which IC50 was measured for `COc1c(F)cccc1Nc1c(-c2ccncc2OC[C@@H](C)OC)[nH]c2c1C(=O)NCC2` tested on Ba/F3-EGFR-insSVD cells?
10.4

* * *

Molecular target: EGFR ins ASV (insertion of ASV between V769 and D770)
Test: Exon 20-Mutant-EGFR(V769_D770insASV) kinase assay (TR-FRET)
Assay type: biochemical, human
Conditions: 2 mM ATP
Measured EGFR ins ASV IC50 [mol] (mean) of individual entries
Give just the numeric value; mol need not be written.

For orientation, consider the following solved cases.
[[record]]
smiles_structure = "COCCOc1cnccc1-c1[nH]c2c(c1Nc1ccccc1OC(F)F)C(=O)NCC2"
reported_property = "EGFR ins ASV IC50 [mol] (mean)"
data_value = "4.25e-09"

[[record]]
smiles_structure = "CN(C)CCOc1cnccc1-c1[nH]c2c(c1Nc1cccc(F)c1)C(=O)NCC2"
reported_property = "EGFR ins ASV IC50 [mol] (mean)"
data_value = "4.31e-09"

[[record]]
smiles_structure = "CC(C)(O)COc1cnccc1-c1[nH]c2c(c1Nc1cccc(F)c1)C(=O)NCC2"
reported_property = "EGFR ins ASV IC50 [mol] (mean)"
data_value = "1.31e-10"

[[record]]
smiles_structure = "COc1c(F)cccc1Nc1c(-c2ccncc2OCC(C)(C)OC)[nH]c2c1C(=O)NCC2"
reported_property = "EGFR ins ASV IC50 [mol] (mean)"
data_value = "1.77e-10"


Need EGFR ins ASV IC50 [mol] (mean) of `COCCOc1cnccc1-c1[nH]c2c(c1Nc1ccccc1OC)C(=O)NCC2` , thanks.
3.89e-08

Also check `COC(C)(C)COc1cnccc1-c1[nH]c2c(c1Nc1cccc(F)c1OC(F)F)C(=O)NCC2`
2.39e-10

Also check `COC(C)(C)COc1cnccc1-c1[nH]c2c(c1Nc1cccc(F)c1OCC(F)F)C(=O)NCC2`
7.09e-09

This collection of values is drawn from patent US11339157B1.
